B1: TPR 5TU (parent)
chain: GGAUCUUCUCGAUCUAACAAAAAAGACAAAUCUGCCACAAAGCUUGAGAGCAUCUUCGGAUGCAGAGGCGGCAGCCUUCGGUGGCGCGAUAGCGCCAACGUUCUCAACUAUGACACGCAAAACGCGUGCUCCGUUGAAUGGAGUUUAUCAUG

Variants of: B1
Test: polymerase ribozyme fitness, log enrichment relative to wild type (log ratio); higher = more active; in vitro selection for triplet polymerase activity
Fewer inactive variants are shown than the library holds.
Binary call on polymerase ribozyme fitness (log ratio): fulfilled from -3 upward, not fulfilled beneath that.

mutation_spec: A21C C32G G84A G117A U135A
class: not fulfilled
//
mutation_spec: C35U C85U
class: fulfilled
//
mutation_spec: A47C U78A C131U U145A
class: not fulfilled
//
mutation_spec: C36G A47G U55C G84U C149A
class: not fulfilled
//
mutation_spec: A47G C123U C129G
class: not fulfilled
//
mutation_spec: U15A C63U U151A
class: not fulfilled

// query Could you tell me if the measured polymerase ribozyme fitness (log ratio) of A39C C87U U101G G117U reaches -3 or more?
// result not fulfilled

// query Could you tell me if the measured polymerase ribozyme fitness (log ratio) of A24U U56C G62A A64G G68C G83A G124U U146A reaches -3 or more?
// result not fulfilled

// query Could you tell me if the measured polymerase ribozyme fitness (log ratio) of `G112A` reaches -3 or more?
// result fulfilled
